# subject.of.test: human Retinoid X Receptor beta (RXRb), RXRB (gene 6257)
# experiment: ATG_RXRb_TRANS: Attagene TRANS-FACTORIAL HepG2 Assay for human Retinoid X Receptor beta (RXRb) (AID 2283013)
Inconclusive results are not listed. Active and inactive are the calls of the source. How the source made its calls: active means hit-call score of the fitted dose curve at least 0.9, where 1 is the maximum; inconclusive means response in the unintended direction; inactive means score below 0.9.
Labels: class 1 for active, class 0 for inactive

[[record]]
molecule = "O=c1cc[nH]cc1"
discrete_label = "class 0"

[[record]]
molecule = "CCCCCCCC1CCCC1=O (stereo not given)"
discrete_label = "class 0"

[[record]]
molecule = "CCCCCCCCOC(=O)c1ccc(O)cc1"
discrete_label = "class 1"

[[record]]
molecule = "O=C(c1ccc(OCCN2CCCCC2)cc1)c1c(-c2ccc(O)cc2)sc2cc(O)ccc12"
discrete_label = "class 0"

[[record]]
molecule = "O=C(O)c1cccc(Cl)n1"
discrete_label = "class 0"

[[record]]
molecule = "COC(=O)C(C)Oc1ccc(Oc2ncc(C(F)(F)F)cc2Cl)cc1 (stereo not given)"
discrete_label = "class 0"

[[record]]
molecule = "CN1CCc2cccc3c2[C@H]1Cc1ccc(O)c(O)c1-3"
discrete_label = "class 0"

[[record]]
molecule = "C=CCOC(=O)/C=C\\C(=O)OCC=C"
discrete_label = "class 0"

[[record]]
molecule = "ClCCOCCOCCCl"
discrete_label = "class 0"

[[record]]
molecule = "CCCCCCCCOS(=O)(=O)O"
discrete_label = "class 1"

